- STUDY_TARGET: UniProt:P00734
- TEST_DESCRIPTION: Kinetic parameters of hydrolysis of the substrates by thrombin in buffer A at 37° C. (Example 4, Table 3)
- Format: biochemical
- Set-up: Pure human α-thrombin; gift of Dr. T. Lindhout (University of Limburg, Maastricht)
- RECORDED_CONDITIONS: buffer A, 37° C.
Square brackets hold non-standard residues; d marks the D form. Peptide text beside a SMILES is read from it. * marks the point of attachment. pNA = O=[N+]([O-])c1ccc(N*)cc1; Boc = CC(C)(C)OC(=O)*
PROPERTY_NAME: Thrombin kcat /Km (M/s)

COMPOUND	Thrombin kcat /Km, M/s
CC(C)[C@H](NC(=O)CNC(=O)OC(C)(C)C)C(=O)N[C@@H](CCCNC(=N)N)C(=O)Nc1ccc([N+](=O)[O-])cc1.Cl [Boc-Gly-Val-Arg-pNA.HCl] (Boc-Gly-Val-Arg-pNA)	45900

a = CC(C)[C@H](NC(=O)CN)C(=O)N[C@@H](CCCNC(=N)N)C(=O)Nc1ccc([N+](=O)[O-])cc1.Cl.Cl [2HCl.H-Gly-Val-Arg-pNA] (H-Gly-Val-Arg-pNA)
b = CC(C)[C@H](NC(=O)OCCS(C)(=O)=O)C(=O)N[C@@H](CCCNC(=N)N)C(=O)Nc1ccc([N+](=O)[O-])cc1.Cl [Msc-Val-Arg-pNA.HCl]
c = Cl.Cl.NCCCC[C@H](NC(=O)[C@@H]1CCCN1C(=O)[C@H](N)Cc1ccccc1)C(=O)Nc1ccc([N+](=O)[O-])cc1 [2HCl.H-D-Phe-Pro-Lys-pNA] (H-[dF]-Pro-Lys-pNA)
Arrange the 3 compounds by rising Thrombin kcat /Km, starting with the smallest. Give your ranking as a list of the labels in the requested order.
b, a, c

###

- STUDY_TARGET: thrombin (Homo sapiens, UniProt P00734)
- TEST_DESCRIPTION: Kinetic parameters of hydrolysis of the substrates by thrombin in buffer A at 37° C. (Example 4, Table 3)
- Assay type: biochemical
- Design: Pure human α-thrombin; gift of Dr. T. Lindhout (University of Limburg, Maastricht)
- RECORDED_CONDITIONS: buffer A, 37° C.
Square brackets hold non-standard residues; d marks the D form. Peptide text beside a SMILES is read from it. * marks the point of attachment. pNA = O=[N+]([O-])c1ccc(N*)cc1; Boc = CC(C)(C)OC(=O)*
PROPERTY_NAME: Thrombin kcat (s⁻¹)

COMPOUND	PROPERTY_NAME	RESULT_UNIT	MEASUREMENT
CC(C)[C@H](NC(=O)CNC(=O)CNC(=O)CNC(=O)[C@@H](N)CCC(=O)O)C(=O)N[C@@H](CCCNC(=N)N)C(=O)Nc1ccc([N+](=O)[O-])cc1 [2HCl.H-EGGGVR-pNA, 2HCl.H-Glu-Gly-Gly-Gly-Val-Arg-pNA] (H-EGGGVR-pNA)	Thrombin kcat	s⁻¹	0.27
CC(C)[C@H](NC(=O)CNC(=O)OC(C)(C)C)C(=O)N[C@@H](CCCNC(=N)N)C(=O)Nc1ccc([N+](=O)[O-])cc1.Cl [Boc-Gly-Val-Arg-pNA.HCl] (Boc-Gly-Val-Arg-pNA)	Thrombin kcat	s⁻¹	11.2

a = COC(=O)CC(=O)N[C@H](C(=O)N[C@@H](CCCNC(=N)N)C(=O)Nc1ccc([N+](=O)[O-])cc1)C(C)C.Cl [MZ-Val-Arg-pNA.HCl]
b = CC(C)[C@H](NC(=O)CN)C(=O)N[C@@H](CCCCN)C(=O)Nc1ccc([N+](=O)[O-])cc1.Cl.Cl [2HCl.H-Gly-Val-Lys pNA, 2HCl.H-Gly-Val-Lys-pNA] (H-Gly-Val-Lys-pNA)
c = Cl.Cl.NCCCC[C@H](NC(=O)[C@@H]1CCCN1C(=O)[C@H](N)Cc1ccccc1)C(=O)Nc1ccc([N+](=O)[O-])cc1 [2HCl.H-D-Phe-Pro-Lys-pNA] (H-[dF]-Pro-Lys-pNA)
d = CC(C)[C@H](NC(=O)OCCS(C)(=O)=O)C(=O)N[C@@H](CCCNC(=N)N)C(=O)Nc1ccc([N+](=O)[O-])cc1.Cl [Msc-Val-Arg-pNA.HCl]
Reorder: Thrombin kcat, max to min. Give your ranking as a list of the labels in the requested order.
c, a, d, b

###

- STUDY_TARGET: human α-thrombin (Homo sapiens)
- Construct: Pure human α-thrombin; gift of Dr. T. Lindhout (University of Limburg, Maastricht)
- TEST_DESCRIPTION: Kinetics of hydrolysis of substrates by human α-thrombin in buffer A at 37° C. (Example 2, Table 1)
- Type: biochemical
Square brackets hold non-standard residues; d marks the D form. Peptide text beside a SMILES is read from it. * marks the point of attachment. pNA = O=[N+]([O-])c1ccc(N*)cc1
PROPERTY_NAME: kcat (s⁻¹)

Here's what some known entries look like.
> print(dat)
                                   compound  result.unit  measurement
1  NC(N)=NCCC[C@H](NC(=O)[C@@H]1CCCCN1C(=O)[C@H](N)Cc1ccccc1)C(=O)Nc1ccc([N+](=O)[O-])cc1 [2HCl.H-D-Phe-Pip-Arg-pNA]          s⁻¹        236.5
2  COC(=O)C(C)(C)C(=O)NCC(=O)N[C@@H](CCCNC(=N)N)C(=O)Nc1ccc([N+](=O)[O-])cc1.Cl [DMMZ-Gly-Arg-pNA.HCl]          s⁻¹         6.44
3  CC(C)[C@@H](N)C(=O)N[C@@H](CCCNC(=N)N)C(=O)Nc1ccc([N+](=O)[O-])cc1.Cl.Cl [2HCl.H-D-Val-Arg-pNA] (H-[dV]-Arg-pNA)          s⁻¹         0.28
4  COC(=O)CC(=O)N[C@H](C(=O)N[C@@H](CCCNC(=N)N)C(=O)Nc1ccc([N+](=O)[O-])cc1)C(C)C.Cl [MZ-Val-Arg-pNA.HCl]          s⁻¹         14.4

A = Cl.Cl.N=C(N)NCCC[C@H](NC(=O)[C@@H]1CCCN1C(=O)[C@H](N)Cc1ccccc1)C(=O)Nc1ccc([N+](=O)[O-])cc1 [2HCl.H-D-Phe-Pro-Arg-pNA]
B = COC(=O)C(C)(C)C(=O)N[C@@H](C)C(=O)N[C@@H](CCCNC(=N)N)C(=O)Nc1ccc([N+](=O)[O-])cc1.Cl [DMMZ-Ala-Arg-pNA.HCl]
Pick one: A or B . Which one has the lower reported kcat? Use the label to indicate which entry you chose.
B

###

- STUDY_TARGET: factor Xa (Homo sapiens, UniProt P00742)
- Construct: human factor Xa samples; gift of Dr. T. Lindhout (University of Limburg, Maastricht)
- Sequence (P00742 41-179 limits assumed): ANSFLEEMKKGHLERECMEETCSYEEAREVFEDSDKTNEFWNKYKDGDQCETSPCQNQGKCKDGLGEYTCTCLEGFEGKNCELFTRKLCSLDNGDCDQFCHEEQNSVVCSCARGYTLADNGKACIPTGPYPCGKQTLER
- Sequence (P00742 235-488 limits assumed): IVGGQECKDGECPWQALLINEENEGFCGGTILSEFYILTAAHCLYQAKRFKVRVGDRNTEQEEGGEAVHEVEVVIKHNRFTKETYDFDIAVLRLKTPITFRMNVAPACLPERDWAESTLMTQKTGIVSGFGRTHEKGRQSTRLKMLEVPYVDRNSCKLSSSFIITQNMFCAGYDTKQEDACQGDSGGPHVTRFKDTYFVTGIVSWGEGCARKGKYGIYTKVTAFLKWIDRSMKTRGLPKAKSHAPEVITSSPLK
- TEST_DESCRIPTION: Kinetics of hydrolysis of substrates by human factor Xa in buffer A at 37° C. (Example 2, Table 2)
- Type: biochemical
Square brackets hold non-standard residues; d marks the D form. Peptide text beside a SMILES is read from it. * marks the point of attachment. pNA = O=[N+]([O-])c1ccc(N*)cc1; Tos = Cc1ccc(S(=O)(=O)*)cc1; Pip = O=C(O)[C@@H]1CCCCN1
PROPERTY_NAME: Km (µM)

MOLECULE	RESULT_UNIT	Km
COC(=O)CC(=O)N[C@@H](C(=O)N[C@@H](CCCNC(=N)N)C(=O)Nc1ccc([N+](=O)[O-])cc1)C(C)C.Cl [MZ-D-Val-Arg-pNA.HCl]	µM	1820
Cc1ccc(S(=O)(=O)NCC(=O)N[C@@H](CCCNC(=N)N)C(=O)Nc2ccc([N+](=O)[O-])cc2)cc1.Cl [pTS-Gly-Arg-pNA.HCl] (Tos-Gly-Arg-pNA)	µM	233
Cl.Cl.N=C(N)NCCC[C@H](NC(=O)[C@@H]1CCCN1C(=O)[C@H](N)Cc1ccccc1)C(=O)Nc1ccc([N+](=O)[O-])cc1 [2HCl.H-D-Phe-Pro-Arg-pNA]	µM	693

1 = CCC(CC)(C(=O)NCC(=O)N[C@@H](CCCNC(=N)N)C(=O)Nc1ccc([N+](=O)[O-])cc1)C(=O)OC.Cl [DEMZ-Gly-Arg-pNA.HCl]
2 = Cl.Cl.NCCCC[C@H](NC(=O)[C@@H]1CCCCN1C(=O)[C@H](N)Cc1ccccc1)C(=O)Nc1ccc([N+](=O)[O-])cc1 [2HCl.H-D-Phe-Pip-Lys-pNA] (H-[dF]-[Pip]-Lys-pNA)
3 = COc1ccc(COC(=O)NCC(=O)N[C@@H](CCCNC(=N)N)C(=O)Nc2ccc([N+](=O)[O-])cc2)cc1.Cl [MZ-Gly-Arg-pNA.HCl]
4 = NC(N)=NCCC[C@H](NC(=O)[C@@H]1CCCCN1C(=O)[C@H](N)Cc1ccccc1)C(=O)Nc1ccc([N+](=O)[O-])cc1 [2HCl.H-D-Phe-Pip-Arg-pNA]
Arrange the 4 molecules by rising Km, starting with the smallest. Give your ranking as a list of the labels in the requested order.
4, 2, 1, 3
(4: 174 µM, 2: 963 µM, 1: 2320 µM, 3: 4700 µM)

A = COC(=O)CC(=O)N[C@H](C)C(=O)N[C@@H](CCCNC(=N)N)C(=O)Nc1ccc([N+](=O)[O-])cc1.Cl [MZ-D-Ala-Arg-pNA.HCl]
B = COC(=O)CC(=O)N[C@@H](C)C(=O)N[C@@H](CCCNC(=N)N)C(=O)Nc1ccc([N+](=O)[O-])cc1.Cl [MZ-Ala-Arg-pNA.HCl]
Which of the two gives a bigger number for Km: A or B ? Use the label to indicate which entry you chose.
B

src = patent US6207399A
